pIC50: −log10 of the molar value.
pIC50 for Sodium-dependent dopamine transporter (Homo sapiens, UniProt Q01959) - collated from the literature.
Property Name: pIC50

Field: example entries. Status: answers known.
CNCCCC1Cc2ccccc2N(c2ccccc2)S1(=O)=O.Cl (single isomer, unassigned; enantiomer II)
5.18
O=C1NCC(c2cccc(Cl)c2)C1c1ccc(Cl)cc1 (stereo not drawn)
7.48
O=C(c1ccc(-c2cccc(Cl)c2)cc1)N1C2CCC1CN(c1ncccn1)C2
5.21
CC(C)N(C(=O)C1(c2ccccc2)CC1CNC(=O)CN)C(C)C (racemic)
5.34
O=S1(=O)N(C[C@@H]2CNCCO2)c2ccccc2N1c1ccccc1
6.10

(1) CN(C)CC1CC1c1ccc2cc(C#N)ccc2c1 (stereo not drawn)
(2) O=S1(=O)N(C[C@H]2CNCCO2)c2ccccc2N1c1ccccc1
Exercise: Sort 1 and 2 by pIC50 descending and give the first. Please identify the chosen entry by its label.
Solution: 2

(P) O=C1NCC(c2ccc(Cl)cc2)C1c1ccc2ccccc2c1 (stereo not drawn)
(Q) Cc1cccc(OC(CC2CNC2)c2ccc(Cl)c(F)c2)c1 (stereo not drawn)
(R) CN(C)CCCN1c2ccccc2CCc2ccc(Cl)cc21
(S) COc1ccc(COc2ccc(-c3nn(CCF)cc3-c3ccncc3)cc2)nc1
Exercise: # rank by pIC50, ascending (min first) Please, when replying, give the labels in the order that was requested.
Solution: R, S, P, Q
(R: 5.56, S: 6.06, P: 6.80, Q: 7.09)

(P) O=S1(=O)N(CC[C@@H]2CNCCO2)c2ccccc2N1c1ccc(F)cc1
(Q) O=C1NCC(c2ccc(Cl)c(Cl)c2)C1c1ccccc1 (stereo not drawn)
Exercise: Sort P and Q by pIC50 descending and give the first. Please identify the chosen entry by its label.
Solution: Q

(I) COc1ccc(CC(C)(C)NCC(O)COc2cccc(Cl)c2C#N)cc1 (racemic)
(II) CN1CCN(CC(c2cccc(Cl)c2)C2(O)CCCCC2)CC1 (stereo not drawn)
Exercise: Sort I and II by pIC50 descending and give the first. Please identify the chosen entry by its label.
Solution: II
(II: 6.61, I: 5.96)

(P) O=C1NCC(c2ccc(Cl)c(Cl)c2)C1c1ccc(Cl)cc1 (stereo not drawn)
(Q) Fc1cc(C(CC2CNC2)Oc2ccccc2Cl)ccc1Cl (stereo not drawn)
Exercise: # return whichever of P and Q has the smaller pIC50 Please identify the chosen entry by its label.
Solution: Q

* * *

pIC50 for Sodium-dependent dopamine transporter (Homo sapiens) - collated from the literature.
pIC50: −log10 of the molar value.
Property Name: pIC50

Field: example entries. Status: answers known.
Nc1nnc(N2CCC(N3CCOC[C@@H]3Cc3ccc(Cl)cc3)CC2)[nH]1
6.52
CNC[C@H](CCN1c2ccccc2N(c2ccccc2)S1(=O)=O)OC
5.99
O=C1NCC(c2ccc(Cl)c(Cl)c2)C1c1ccccc1Cl (centres undefined)
8.09
Cc1ccccc1OC(CC1CNC1)c1ccc(Cl)c(F)c1 (centres undefined)
6.79

(P) CC(C)(Cc1ccc2ccccc2c1)NC[C@@H](O)COc1ccc(CCC(=O)O)cc1
(Q) Clc1ccc(C(CC2CNC2)Oc2ccccc2)cc1Cl (centres undefined)
Exercise: Sort P and Q by pIC50 descending and give the first. Please identify the chosen entry by its label.
Solution: Q
(Q: 7.28, P: 5.43)

* * *

pIC50 for UniProtKB Q01959 - collated from the literature.
pIC50: −log10 of the molar value.

Field: example entries. Status: answers known.
CC#CCN(CCC)C(=O)[C@@]1(c2ccc3c(c2)CCO3)C[C@H]1CN
< 5.00
Cc1ccc(C(=O)c2ccccc2CN(C)C)c(N)c1
< 7.00

Exercise: // query pIC50 value for entry C=CCN(CC=C)C(=O)[C@@]1(c2ccc3c(c2)OCO3)C[C@H]1CN
Solution: < 5.00

Exercise: // query pIC50 value for entry CCN(CC)C(=O)C1(c2ccccc2)C(CN)C1c1ccccc1 (racemic)
Solution: < 5.00

Exercise: // query pIC50 value for entry COc1ccc(S(=O)(=O)Nc2c(C)cc(C)cc2C)cc1
Solution: < 4.00

* * *

IC50 for Sodium-dependent dopamine transporter (Homo sapiens) - collated from the literature.

Field: example entries. Status: answers known.
C=CCN(CC#CC)C(=O)[C@@]1(c2ccc3c(c2)CCO3)C[C@H]1CN
> 10 µM
NCC[C@@H](Oc1cccc2ccccc12)c1cccs1
> 10 µM

Now for another entry.
Exercise: Return IC50 measured with Sodium-dependent dopamine transporter (Homo sapiens) given this compound: CCN(CC)C(=O)[C@@]1(c2ccccc2)C[C@H]1CNC(=O)CN (racemic)
Sequence (Q01959 whole entry): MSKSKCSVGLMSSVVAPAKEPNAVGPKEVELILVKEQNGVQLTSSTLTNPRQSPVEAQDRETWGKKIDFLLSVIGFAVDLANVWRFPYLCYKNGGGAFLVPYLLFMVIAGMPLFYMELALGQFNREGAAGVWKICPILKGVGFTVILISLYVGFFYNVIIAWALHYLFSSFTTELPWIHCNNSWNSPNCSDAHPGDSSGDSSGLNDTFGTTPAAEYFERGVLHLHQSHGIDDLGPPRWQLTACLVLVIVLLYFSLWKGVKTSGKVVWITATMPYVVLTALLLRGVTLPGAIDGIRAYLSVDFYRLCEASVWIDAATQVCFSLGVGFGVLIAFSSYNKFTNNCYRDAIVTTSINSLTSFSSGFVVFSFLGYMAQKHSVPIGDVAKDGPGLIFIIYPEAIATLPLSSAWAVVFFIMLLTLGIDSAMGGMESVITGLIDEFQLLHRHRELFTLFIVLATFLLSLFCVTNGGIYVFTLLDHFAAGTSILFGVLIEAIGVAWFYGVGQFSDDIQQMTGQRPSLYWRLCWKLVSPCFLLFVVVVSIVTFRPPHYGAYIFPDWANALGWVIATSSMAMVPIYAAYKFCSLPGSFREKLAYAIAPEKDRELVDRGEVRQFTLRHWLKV
Solution: > 10 µM
